- SUBJECT_OF_TEST: HA1 adenosine receptor (Homo sapiens, UniProt P30542)
- Sequence (P30542 1-326): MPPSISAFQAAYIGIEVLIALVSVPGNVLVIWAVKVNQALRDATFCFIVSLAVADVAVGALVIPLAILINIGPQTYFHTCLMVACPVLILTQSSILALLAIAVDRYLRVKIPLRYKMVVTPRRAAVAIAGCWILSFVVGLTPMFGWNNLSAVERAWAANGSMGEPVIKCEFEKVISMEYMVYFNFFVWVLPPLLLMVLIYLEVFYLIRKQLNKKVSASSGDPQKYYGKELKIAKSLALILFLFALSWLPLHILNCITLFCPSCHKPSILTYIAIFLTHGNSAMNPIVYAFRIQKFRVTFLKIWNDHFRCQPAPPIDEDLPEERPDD
- ASSAY_COMMENT: Human adenosine A1 receptor affinity (Ki hA1)
- Type: binding
pKi: −log10 of the molar value.
READOUT_KIND: pKi

a: CC1C=CC(C)N1C(=O)c1cc(N)n2nc(-c3ccccn3)nc2c1 (stereo not drawn)
b: CN(C)C(=O)C1CCCN1C(=O)c1cc(N)n2nc(-c3ccc(Br)o3)nc2c1 (stereo not drawn)
c: Nc1cc(C(=O)N(Cc2ccccc2)Cc2ccccc2)cc2nc(-c3ccccn3)nn12
d: COCCN(C)C(=O)c1cc(N)n2nc(-c3nccs3)nc2c1
In: Put the molecules in ascending order of pKi. I would appreciate it if you listed the labels in the requested order.
Out: d, b, a, c

----------
- SUBJECT_OF_TEST: human adenosine A2A receptor (Homo sapiens)
- Construct: expressed in transfected cells; host or cells: CHO cells, Semliki Forest virus expression system; membrane preparation
- ASSAY_COMMENT: Human adenosine A2A receptor [3H]-SCH-58261 binding assay
- CONDITIONS: affinity to human adenosine A2A receptor; read-out: Ki HA2A
READOUT_KIND: Ki (nM)

In: Return reported Ki; argument: `COc1ccc(CNC(=O)c2cc(N)n3nc(-c4ccco4)nc3c2)cc1`
Out: 33.7

In: Item `CCCCNC(=O)c1cc(N)n2nc(-c3ccc(Br)o3)nc2c1` has what recorded Ki?
Out: 19.4

In: Please look up its Ki: `CCCCN(CC)C(=O)c1cc(N)n2nc(-c3nccs3)nc2c1`
Out: 89.5

In: Reported Ki, molecule `CCN(C(=O)c1cc(N)n2nc(-c3ccc(Br)o3)nc2c1)C1CCCCC1` : ____
Out: 2

In: # lookup: Ki of `CCCCN(Cc1ccccc1)C(=O)c1cc(N)n2nc(-c3ccc[nH]3)nc2c1`
Out: 294

In: I'd like to know its Ki. The molecule in question is `Nc1cc(C(=O)NCc2ccccc2)cc2nc(-c3cc(Br)co3)nn12`
Out: 29.7

In: Suppose we examine the molecule `Nc1cc(C(=O)N2CCCCCC2)cc2nc(-c3ccc(Br)o3)nn12` ; what Ki value has been reported?
Out: 1.7

In: Would you mind telling me what Ki value was observed for CC(NC(=O)c1cc(N)n2nc(-c3ccccc3)nc2c1)c1ccccc1 (stereo not drawn) ?
Out: 84.6

1: CCN(CC)C(=O)c1cc(N)n2nc(-c3ccoc3)nc2c1
2: C=CCN(C)C(=O)c1cc(N)n2nc(-c3nccs3)nc2c1
In: Given 1 and given 2 , which shows the smaller recorded Ki? API: response body contains the label of the selected item.
Out: 2
(2: 116 nM, 1: 301 nM)

----------
- SUBJECT_OF_TEST: human adenosine A2A receptor (Homo sapiens, UniProt P29274)
- Construct: expressed in transfected cells; host or cells: CHO cells, Semliki Forest virus expression system; membrane preparation
- Sequence (P29274 whole entry): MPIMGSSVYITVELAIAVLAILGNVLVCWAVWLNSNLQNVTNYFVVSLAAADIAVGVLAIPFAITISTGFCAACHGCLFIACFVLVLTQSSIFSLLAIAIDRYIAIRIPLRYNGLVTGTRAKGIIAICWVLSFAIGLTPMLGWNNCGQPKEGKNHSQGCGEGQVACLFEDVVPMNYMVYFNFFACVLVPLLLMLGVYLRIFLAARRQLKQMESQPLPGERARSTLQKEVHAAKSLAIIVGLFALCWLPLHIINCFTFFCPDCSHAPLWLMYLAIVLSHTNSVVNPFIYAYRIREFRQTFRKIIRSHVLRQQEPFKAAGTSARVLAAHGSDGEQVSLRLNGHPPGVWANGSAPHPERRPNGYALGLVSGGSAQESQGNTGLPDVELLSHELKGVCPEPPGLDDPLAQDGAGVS
- ASSAY_COMMENT: Human adenosine A2A receptor [3H]-SCH-58261 binding assay
- CONDITIONS: affinity to human adenosine A2A receptor; read-out: Ki HA2A
- Method: Human Adenosine A2A Receptor The human adenosine A2A receptor was recombinantly expressed in chinese hamster ovary (CHO) cells using the semliki forest virus expression system. […] Assay plates were incubated for 1 hour at room temperature before centrifugation and then bound ligand determined using a Packard Topcount scintillation counter. IC50 values were calculated using a non-linear curve fitting program and Ki values calculated using the Cheng-Prussoff equation.
pKi: −log10 of the molar value.
READOUT_KIND: pKi

Some solved cases for reference:
In: Param readout = pKi; param system = human adenosine A2A receptor (Homo sapiens, UniProt P29274); param query = `COc1ccccc1CNC(=O)c1cc(N)n2nc(-c3ccccn3)nc2c1` ; response: value
Out: 7.66

In: What reported pKi corresponds to `COc1ccc(-c2nc3cc(C(=O)N4CCCCC4)cc(N)n3n2)s1` on human adenosine A2A receptor (Homo sapiens, UniProt P29274)?
Out: 6.76

In: State its pKi on human adenosine A2A receptor (Homo sapiens, UniProt P29274): `CN(CCc1ccccn1)C(=O)c1cc(N)n2nc(-c3ccc(Br)o3)nc2c1`
Out: 8.01

P: COc1ccc(CNC(=O)c2cc(N)n3nc(-c4nccs4)nc3c2)cc1
Q: CC1CCN(C(=O)c2cc(N)n3nc(-c4ccc(Br)o4)nc3c2)CC1
R: Cc1ccc(-c2nc3cc(C(=O)NCc4ccccc4Cl)cc(N)n3n2)s1
S: C#CCN(C)C(=O)c1cc(N)n2nc(-c3ccc(Br)o3)nc2c1
T: Cc1ccc(-c2nc3cc(C(=O)N(C)C4CCCCC4)cc(N)n3n2)s1
In: Put the molecules in ascending order of pKi. The labels, placed in the requested order, form the answer.
Out: P, R, T, Q, S

----------
- SUBJECT_OF_TEST: HA1 adenosine receptor (Homo sapiens)
- ASSAY_COMMENT: Human adenosine A1 receptor affinity (Ki hA1)
- Type: binding
- CONDITIONS: affinity to human adenosine A1 receptor
READOUT_KIND: Ki (nM)

Before answering, review these 6 worked examples.
In: Find the measured Ki: item `CN(Cc1ccccc1)C(=O)c1cc(N)n2nc(-c3ccoc3)nc2c1` , target or system HA1 adenosine receptor (Homo sapiens).
Out: 1010

In: // map `CCCCN(CCC)C(=O)c1cc(N)n2nc(-c3nccs3)nc2c1` to recorded Ki (system: HA1 adenosine receptor (Homo sapiens))
Out: 1790

In: What value of Ki on HA1 adenosine receptor (Homo sapiens) does `C[C@@H]1CN(C(=O)c2cc(N)n3nc(-c4ccc(Br)o4)nc3c2)C[C@H](C)O1` have?
Out: 422

In: Record lookup: for HA1 adenosine receptor (Homo sapiens), what Ki belongs to `CN(C(=O)c1cc(N)n2nc(-c3ccc(Br)o3)nc2c1)C1CCCCC1` ?
Out: 77.3

In: I'm curious: which Ki was measured for `CCN(Cc1ccccc1)C(=O)c1cc(N)n2nc(-c3ccccn3)nc2c1` tested on HA1 adenosine receptor (Homo sapiens)?
Out: 244

In: I'm curious: which Ki was measured for `NC(=O)C1CCN(C(=O)c2cc(N)n3nc(-c4ccc(Br)o4)nc3c2)CC1` tested on HA1 adenosine receptor (Homo sapiens)?
Out: 385

1: Nc1cc(C(=O)NC2CCCCC2)cc2nc(-c3cccs3)nn12
2: CCN(C(=O)c1cc(N)n2nc(-c3ccccn3)nc2c1)C1CCCCC1
3: Nc1cc(C(=O)NCCc2ccccc2Cl)cc2nc(-c3ccccn3)nn12
4: Cc1ccc(-c2nc3cc(C(=O)N(C)C4CCCCC4)cc(N)n3n2)o1
5: Nc1cc(C(=O)N2CCSC2)cc2nc(-c3nccs3)nn12
In: Place the items in sequence of falling Ki. // rank by listing labels in the order requested
Out: 5, 2, 4, 1, 3

----------
- SUBJECT_OF_TEST: human adenosine A2A receptor (Homo sapiens)
- Construct: expressed in transfected cells; host or cells: CHO cells, Semliki Forest virus expression system; membrane preparation
- ASSAY_COMMENT: Human adenosine A2A receptor [3H]-SCH-58261 binding assay
- CONDITIONS: calculated ratio of the affinity to the HA1 receptor to the HA2a receptor
READOUT_KIND: selectivity (A1/A2a)

A: COc1ccccc1CNC(=O)c1cc(N)n2nc(-c3nccs3)nc2c1 [Example 130]
B: COc1ccccc1CNC(=O)c1cc(N)n2nc(-c3ccoc3)nc2c1 [Example 228]
C: CCN(C(=O)c1cc(N)n2nc(-c3ccc(Cl)o3)nc2c1)C1CCCCC1 [Example 243]
D: CCN(C)C(=O)c1cc(N)n2nc(-c3ccc(Br)o3)nc2c1 [Example 264]
E: Cn1cccc1-c1nc2cc(C(=O)NCc3ccccc3)cc(N)n2n1 [Example 180]
In: Given 5 compounds, produce a descending ranking by selectivity (A1/A2a). Please express your ranking as an ordered list of the labels.
Out: D, C, A, B, E
(D: 42.7, C: 28.6, A: 8.4, B: 5.4, E: 2.7)

----------
- SUBJECT_OF_TEST: human adenosine A2A receptor (Homo sapiens, UniProt P29274)
- Construct: expressed in transfected cells; host or cells: CHO cells, Semliki Forest virus expression system; membrane preparation
- ASSAY_COMMENT: Human adenosine A2A receptor [3H]-SCH-58261 binding assay
- CONDITIONS: affinity to human adenosine A2A receptor; read-out: Ki HA2A
pKi: −log10 of the molar value.
READOUT_KIND: pKi

Known results for compounds:
In: # query: pKi of entry Nc1cc(C(=O)N2CCC3CCCCC3C2)cc2nc(-c3ccc(Br)o3)nn12 (stereo not shown) [Example 350]
Out: 8.24

In: // pKi lookup, key: Nc1cc(C(=O)N2CCCCC2)cc2nc(-c3ccccc3)nn12 [Example 151]
Out: 7.07

In: Given Cc1ccc(-c2nc3cc(C(=O)N(C)Cc4ccccc4)cc(N)n3n2)o1 [Example 140] , state its recorded pKi.
Out: 8.14

a: COc1ccccc1CNC(=O)c1cc(N)n2nc(-c3ccc(Cl)o3)nc2c1 [Example 246]
b: Nc1cc(C(=O)N2CCCCC2)cc2nc(-c3cc(Br)co3)nn12 [Example 171]
c: COc1ccc(-c2nc3cc(C(=O)N(C)CCc4ccccc4)cc(N)n3n2)s1 [Example 77]
d: CC(C)N(Cc1ccccc1)C(=O)c1cc(N)n2nc(-c3ccc(Br)o3)nc2c1 [Example 26]
In: # ascending order, key=pKi Provide your answer as the labels ordered per the instruction.
Out: c, b, a, d
(c: 6.94, b: 7.19, a: 7.62, d: 8.64)

A: Nc1cc(C(=O)N2CCCCC2)cc2nc(-c3nccs3)nn12 [Example 103]
B: CN(Cc1ccccc1)C(=O)c1cc(N)n2nc(-c3ccccn3)nc2c1 [Example 32]
C: Nc1cc(C(=O)NCc2ccccc2)cc2nc(-c3ccoc3)nn12 [Example 224]
D: CCCCNC(=O)c1cc(N)n2nc(-c3nccs3)nc2c1 [Example 119]
E: COc1ccc(-c2nc3cc(C(=O)NC4CCCCC4)cc(N)n3n2)s1 [Example 64]
In: Order the items by recorded pKi; the first position goes to the largest value. Return the labels ranked in the requested order, please.
Out: D, B, C, A, E
(D: 7.77, B: 7.54, C: 7.32, A: 7.00, E: 6.64)

a: CCCCNC(=O)c1cc(N)n2nc(-c3sccc3C)nc2c1 [Example 184]
b: CCN(Cc1ccccc1)C(=O)c1cc(N)n2nc(-c3ccc(Br)o3)nc2c1 [Example 307]
c: CCCN(C)C(=O)c1cc(N)n2nc(-c3nccs3)nc2c1 [Example 284]
d: Nc1cc(C(=O)NCc2ccccc2Cl)cc2nc(-c3cccs3)nn12 [Example 163]
e: C=CCN(C)C(=O)c1cc(N)n2nc(-c3ccc(Br)o3)nc2c1 [Example 267]
In: Ranking field: pKi; order: falling. # the answer lists labels in the order requested
Out: b, e, d, a, c
(b: 8.77, e: 8.37, d: 7.51, a: 7.16, c: 6.88)
